- Assay overview: GSK_TCMDC: Inhibition Frequency Index (IFI). The number of non-kinase HTS assays where a compound showed > 50 % inhibition, expressed as a percentage of the number of such assays in which the compound was tested
- Type: functional
Over roughly 13,000 compounds, “IFI” has its median near 4; the highest 2% begin near 17. For the sample, the highest values were picked, then their nearest neighbours and some compounds at random.
Measured IFI by item
Write down the numeric answer in % and omit the unit.

1) COc1cccc(NC(=O)Cn2c(C)c(C#N)c3ccccc32)c1 | 0
2) Oc1ccc(CCCNc2nc(NCc3ccccc3-c3ccccc3)nc(NC3CCNCC3)n2)cc1 | 15.2
3) O=S(=O)(c1ccccc1)n1ccc2cc(Nc3ncnc4cc(C#C[C@H]5CCCN5)sc34)ccc21 | 8.57
4) CCNC(=O)Nc1ccc(N(C)c2ccnc(NC3CC3)n2)cc1 | 2.97
5) O=C(Cn1cc(C(F)(F)F)cc(Cl)c1=O)N1CCN(S(=O)(=O)c2ccc(Cl)cc2)CC1 | 0

Enquiry: Returns the measured IFI for the input compound. Input: O=[N+]([O-])c1ccc(/C=N/O)nc1
Return: 23.4

Enquiry: Returns the measured IFI for the input compound. Input: c1ccc2oc(-c3cc4ccncc4cc3OC3CCNCC3)cc2c1
Return: 8.77

Enquiry: Returns the measured IFI for the input compound. Input: CC(C)CCN1CCC(Oc2ccc(NC(=O)c3cccs3)cc2Cl)CC1
Return: 8.06

###

- Assay overview: GSK_TCMDC: Inhibition Frequency Index (IFI). The number of non-kinase HTS assays where a compound showed > 50 % inhibition, expressed as a percentage of the number of such assays in which the compound was tested
- Format: functional
The full ranking holds about 13,000 compounds; the median of “IFI” is about 4, and the highest 2% start at about 17. Only a selection was taken, and the highest values are over-represented in it overall.
Property measured: IFI (%)
Write down the numeric answer in % and omit the unit.

1. N#Cc1cc(C(=O)c2cc(Br)ccc2O)cn(C2CCCCC2)c1=O | 2.78
2. C[C@H](Cc1ccc(OCCNC[C@H](O)c2cccc(Cl)c2)cc1)NC[C@H](O)c1ccc(Cl)c(Cl)c1 | 11.4
3. CC(Cc1ccc(NC(=O)COc2ccc(CC(C)NCCc3cccc(Cl)c3)cc2)cc1)NCCc1cccc(Cl)c1 (centres undefined) | 32.4

Enquiry: Returns the measured IFI for the input compound. Input: CN1CCN(CCCN(Cc2cccc(-c3ccc(CNCCc4ccccc4)cc3)c2)C(=O)c2cccs2)CC1
Return: 11.3

Enquiry: Returns the measured IFI for the input compound. Input: CCN(CC)CCN(Cc1ccc(-c2ccc(C(F)(F)F)cc2)cc1)C(=O)Cn1c(CCc2c(F)ccc(F)c2F)nc(=O)c2ccccc21
Return: 9.09

Enquiry: Returns the measured IFI for the input compound. Input: OCCN1CCN(Cc2ccc(-c3ccc(-c4nc5cc(F)ccc5[nH]4)cc3)cc2)CC1
Return: 8.91

Enquiry: Returns the measured IFI for the input compound. Input: O=C(c1cc(C(=O)NC2CCCCC2)c(=O)n(C2CCCCC2)c1)c1cc(F)ccc1O
Return: 19.4

Enquiry: Returns the measured IFI for the input compound. Input: Cc1cc(NC2CCCC2)nc(Nc2ccc(F)cc2)n1
Return: 9.09

Enquiry: Returns the measured IFI for the input compound. Input: Cc1cccc2nc(-c3ccc(-c4ccc(NC(=O)Nc5ccsc5)cc4)cc3)[nH]c12
Return: 8

###

- Assay overview: GSK_TCMDC: Inhibition Frequency Index (IFI). The number of non-kinase HTS assays where a compound showed > 50 % inhibition, expressed as a percentage of the number of such assays in which the compound was tested
- Type: functional
Over roughly 13,000 compounds, “IFI” has its median near 4; the highest 2% begin near 17. Only a selection was taken, and the highest values are over-represented in it overall.
Measured IFI by item
A complete answer gives the number followed by the unit.

Here are 6 compounds together with their reported answers.
1) COc1ccc(C#Cc2ccc(-c3c(C)[nH]c(C)c(Cl)c3=O)cc2)cc1 | 0.88%
2) COc1ccc(CNCc2cccc(-c3ccc(-c4nc5cccc(C)c5[nH]4)s3)c2)cc1 | 10.4%
3) NCc1cccc(-c2ccc3ccnc(N)c3c2)c1 | 2.86%
4) CN(C)c1ccc(C(c2ccc(N(C)C)cc2)c2cc([N+](=O)[O-])ccc2Cl)cc1 | 1.47%
5) COc1cccc(-c2ccc3ccnc(N)c3c2)c1 | 7.87%
6) COc1ccc(C(c2ccc(N(C)C)cc2)c2ccc(N(C)C)cc2)cc1 | 18.2%

Enquiry: Returns the measured IFI for the input compound. Input: CN(C)CCNCc1cccc(-c2ccc3c(Nc4cc(O)c(Cl)cc4F)ccnc3c2)c1
Return: 3.68%

Enquiry: Returns the measured IFI for the input compound. Input: C=CCOC(=O)N1CCC(CNCc2ccc(-c3cccc(-c4nc5cc(F)ccc5[nH]4)c3)cc2)C1 (stereo not given)
Return: 2.91%

Enquiry: Returns the measured IFI for the input compound. Input: Nc1nccc2ccc(-c3ccncc3)cc12
Return: 3%

Enquiry: Returns the measured IFI for the input compound. Input: CNc1ccc(CNCc2ccc(-c3ccc(-c4nc5cc(C(F)(F)F)ccc5[nH]4)cc3)cc2)cc1
Return: 14.1%

###

- Assay overview: GSK_TCMDC: Inhibition Frequency Index (IFI). The number of non-kinase HTS assays where a compound showed > 50 % inhibition, expressed as a percentage of the number of such assays in which the compound was tested
- Format: functional
Over roughly 13,000 compounds, “IFI” has its median near 4; the highest 2% begin near 17. This is one part of a sample in which the highest values are shown more often than they occur.
Property measured: IFI (%)
Write down the numeric answer in % and omit the unit.

Here are 5 molecules together with their reported answers.
1) c1ccc2c(NCCCCCCCNc3ccnc4ccccc34)ccnc2c1 | 11.3
2) O=C(Nc1ccc([N+](=O)[O-])cc1)Nc1cc(C(F)(F)F)ccc1F | 8.62
3) COc1cc(C)nc2ccc(NC(=O)Nc3ccc([N+](=O)[O-])cc3C)cc12 | 3.01
4) O=C(Nc1ccc(C(F)(F)F)cc1)Nc1cccc([N+](=O)[O-])c1 | 19.1
5) COc1ccc(NCCCNc2ccnc3ccccc23)cc1 | 17.5

Moving on to another molecule below.
Enquiry: Returns the measured IFI for the input molecule. Input: N#Cc1ccc(NC(=O)Nc2ccc(OC(F)(F)F)cc2)cc1
Return: 20.5

###

- Assay overview: GSK_TCMDC: Inhibition Frequency Index (IFI). The number of non-kinase HTS assays where a compound showed > 50 % inhibition, expressed as a percentage of the number of such assays in which the compound was tested
- Format: functional
The full ranking holds about 13,000 compounds; the median of “IFI” is about 4, and the highest 2% start at about 17. What follows is part of a selection rich in the highest values, with near analogues and random picks from the rest.
Property measured: IFI (%)
Write down the numeric answer in % and omit the unit.

1. Cc1cc(N[C@@H](Cc2ccccc2)C(=O)NCc2cccc(F)c2)nc(NCCc2cccs2)n1 | 12.8

Enquiry: Returns the measured IFI for the input compound. Input: CC(CN(C)C)C(=O)Nc1ccc(-c2ccc(-c3nc4cc(C(F)(F)F)ccc4[nH]3)cc2)cc1 (centres undefined)
Return: 3.6

Enquiry: Returns the measured IFI for the input compound. Input: COc1ccccc1NC(=O)Nc1cccc(-c2cccc(-c3nc4cccc(C)c4[nH]3)c2)c1
Return: 3.03

Enquiry: Returns the measured IFI for the input compound. Input: O=C(NCC1CCN(CCN2CCC(c3cn(CCO)c4ccccc34)CC2)CC1)c1ccc(-c2ccc(C(F)(F)F)cc2)cc1
Return: 10

###

- Assay overview: GSK_TCMDC: Inhibition Frequency Index (IFI). The number of non-kinase HTS assays where a compound showed > 50 % inhibition, expressed as a percentage of the number of such assays in which the compound was tested
- Format: functional
The full ranking holds about 13,000 compounds; the median of “IFI” is about 4, and the highest 2% start at about 17. The sample holds the highest values, similar compounds and a random draw of the others, so the mix is not that of the screen.
Property measured: IFI (%)
Write down the numeric answer in % and omit the unit.

Here are 3 compounds together with their reported answers.
1. CCOC(=O)c1c(CNc2ccncc2)n(C)c2cc(Br)c(OC(C)=O)cc12 | 0.74
2. Oc1ccc(CCNCCCCCCNCCc2ccc(Br)cc2)cc1O | 5.15
3. COc1ccc(COc2cc(NCCCN)nc3ccccc23)cc1 | 0

Enquiry: Returns the measured IFI for the input compound. Input: c1ccc2c(c1)cc(CNCCCN1CCN(CCCNCc3cc4ccccc4c4ccccc34)CC1)c1ccccc12
Return: 19.4

Enquiry: Returns the measured IFI for the input compound. Input: CCOC(=O)c1nc(-c2cccnc2)[nH]c1NC(=S)NCc1ccccc1
Return: 3.15

Enquiry: Returns the measured IFI for the input compound. Input: COc1cc(NCCCNC(=O)c2ccc(Cl)c(Cl)c2)nc2ccccc12
Return: 12.5

Enquiry: Returns the measured IFI for the input compound. Input: Cc1c(-c2cccc(C(C)(C)NCCCN3CCCCC3)c2)cnc(N)c1C
Return: 0.74

Enquiry: Returns the measured IFI for the input compound. Input: O=C(Nc1ccc(Cl)cc1)N[C@H]1CCN(Cc2ccc(OCCCN3CCCCC3)cc2)C1
Return: 7.14
